FYI, the data here is from patent US9776972B2.

Biological target: human PRMT1 (Homo sapiens)
Construct: GST-tagged PRMT1; made in house; host or cells: High Five insect cells (baculovirus)
Sequence (Q99873 with tags, fused parts or gaps): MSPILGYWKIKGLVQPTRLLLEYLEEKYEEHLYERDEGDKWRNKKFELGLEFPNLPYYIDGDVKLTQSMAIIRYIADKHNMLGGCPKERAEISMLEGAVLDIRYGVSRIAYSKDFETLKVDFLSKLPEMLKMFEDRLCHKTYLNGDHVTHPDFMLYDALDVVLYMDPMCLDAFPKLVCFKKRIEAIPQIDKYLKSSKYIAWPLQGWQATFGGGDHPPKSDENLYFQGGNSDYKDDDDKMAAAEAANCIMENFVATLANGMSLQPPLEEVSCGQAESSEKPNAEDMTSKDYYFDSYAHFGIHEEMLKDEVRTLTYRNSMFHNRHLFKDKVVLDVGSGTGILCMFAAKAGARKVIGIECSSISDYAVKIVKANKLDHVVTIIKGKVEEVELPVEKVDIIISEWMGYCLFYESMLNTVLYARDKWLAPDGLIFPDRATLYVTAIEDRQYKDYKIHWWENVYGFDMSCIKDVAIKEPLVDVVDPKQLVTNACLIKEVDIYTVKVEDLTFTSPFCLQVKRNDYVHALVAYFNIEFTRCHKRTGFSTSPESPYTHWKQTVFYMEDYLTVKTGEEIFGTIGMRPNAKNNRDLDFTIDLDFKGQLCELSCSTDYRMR
Assay: PRMT1 Biochemical Assay (3H-SAM Flashplate, peptide substrate)
Conditions: single experiment or average of multiple experiments
Structures can show the parent of a compound that is named as a salt.
QUANTITY_KIND: IC50 (µM)
Hi! Could you send only the number? It should be in µM, unit omitted.

Enquiry: Give me measured IC50, please, for this compound: CN(CCN)Cc1c[nH]nc1-c1cc(F)cc(Cl)c1 [Compound 121]
Return: 0.0107

Enquiry: Give me measured IC50, please, for this compound: CN(CCN)Cc1c[nH]nc1-c1ccc(OC2CC2)cc1 [Compound 114]
Return: 0.00575

Enquiry: Give me measured IC50, please, for this compound: CNCCN(C)Cc1n[nH]cc1-c1ccc(Oc2ccccc2)c(C(=O)N(C)C)c1 [Compound 241]
Return: 0.0522

Enquiry: Give me measured IC50, please, for this compound: CN(CCN)Cc1c[nH]nc1-c1cc(Cl)ccc1F [Compound 156]
Return: 0.243

Enquiry: Give me measured IC50, please, for this compound: CNCCN(C)Cc1c[nH]nc1-c1ccc(OC2CCC(O)CC2)cc1 (centres unmarked) [Compound 299]
Return: 0.0198

Enquiry: Give me measured IC50, please, for this compound: CNCCN(C)Cc1cnn(C(C)C)c1-c1ccc(F)cc1 [Compound 16]
Return: 2.07

Enquiry: Give me measured IC50, please, for this compound: CNCCN(C)Cc1cn(C(C)C)nc1-c1ccc(F)cc1 [Compound 15]
Return: 4.38

Enquiry: Give me measured IC50, please, for this compound: Cc1cc(-c2n[nH]cc2CN(C)CCN)cc(C)c1OC(C)C [Compound 199]
Return: 0.0151

Enquiry: Give me measured IC50, please, for this compound: CN(CCN)Cc1c[nH]nc1-c1ccc(F)c(Cl)c1 [Compound 124]
Return: 0.0137

Enquiry: Give me measured IC50, please, for this compound: CN(CCN)Cc1c[nH]nc1-c1ccccc1C#N [Compound 140]
Return: 0.399

Enquiry: Give me measured IC50, please, for this compound: CN(CCN)Cc1cn(C2COC2)nc1-c1ccc(F)cc1 [Compound 77]
Return: 0.215

Enquiry: Give me measured IC50, please, for this compound: CNCCN(C)Cc1c[nH]nc1-c1ccc(Oc2ccccc2C(=O)NC)cc1 [Compound 274]
Return: 0.0193

Enquiry: Give me measured IC50, please, for this compound: CCN(C)C(=O)c1ccc(-c2n[nH]cc2CN(C)CCN)cc1 [Compound 163]
Return: 0.115

Enquiry: Give me measured IC50, please, for this compound: CC(C)Oc1ccc(-c2n[nH]cc2CN(C)CCN)cc1F [Compound 97]
Return: 0.0026

Enquiry: Give me measured IC50, please, for this compound: CN(CCN1CCC1)Cc1c[nH]nc1-c1ccc(C#N)cc1 [Compound 185]
Return: 1.12

Enquiry: Give me measured IC50, please, for this compound: CN(CCN)Cc1c[nH]nc1-c1ccc(F)cc1Cl [Compound 89]
Return: 0.0674

Enquiry: Give me measured IC50, please, for this compound: CCn1ncc(CN(C)CCNC)c1-c1ccc(OC(C)C)cc1 [Compound 252]
Return: 0.0258

Enquiry: Give me measured IC50, please, for this compound: COc1cc(-c2n[nH]cc2CN(C)CCN)ccc1F [Compound 142]
Return: 0.0297

Enquiry: Give me measured IC50, please, for this compound: Cc1ccc(Cl)c(-c2n[nH]cc2CN(C)CCN)c1 [Compound 91]
Return: 0.272

Enquiry: Give me measured IC50, please, for this compound: CN(CCN)Cc1n[nH]cc1-c1ccc(C2CC2)cc1 [Compound 104]
Return: 0.0157

Enquiry: Give me measured IC50, please, for this compound: CN(CCNC1CC1)Cc1c[nH]nc1-c1ccc(C#N)cc1 [Compound 183]
Return: 2.42

Enquiry: Give me measured IC50, please, for this compound: CNCCN(C)Cc1cn(C2CC2)nc1-c1ccc(F)cc1 [Compound 13]
Return: 1.5

Enquiry: Give me measured IC50, please, for this compound: CN(CCN(C)C1CC1)Cc1c[nH]nc1-c1ccc(C#N)cc1 [Compound 184]
Return: 1.6

Enquiry: Give me measured IC50, please, for this compound: CNCCN(C)Cc1cn(C2CCC2)nc1-c1ccc(OC(C)C)cc1 [Compound 254, hydrochloride]
Return: 0.0293

Enquiry: Give me measured IC50, please, for this compound: CNCCN(C)Cc1cn(C2CCCC2)nc1-c1ccc(OC(C)C)cc1 [Compound 214]
Return: 0.0519

Enquiry: Give me measured IC50, please, for this compound: CN(CCN)Cc1c[nH]nc1-c1ccc(C(F)(F)F)cc1F [Compound 148]
Return: 0.121

Enquiry: Give me measured IC50, please, for this compound: CNCCN(C)Cc1c[nH]nc1-c1ccccc1OC(F)(F)F [Compound 40]
Return: 0.7

Enquiry: Give me measured IC50, please, for this compound: CNCCN(C)Cc1c[nH]nc1-c1ccc(Oc2cncnc2)cc1 [Compound 303]
Return: 0.0279

Enquiry: Give me measured IC50, please, for this compound: CNCCN(C)Cc1c[nH]nc1-c1cc(Cl)c(OC(C)C)c(Cl)c1 [Compound 265]
Return: 0.00567

Enquiry: Give me measured IC50, please, for this compound: CNCCN(C)Cc1c[nH]nc1-c1ccc(OC(COC)COC)cc1 [Compound 316]
Return: 0.0175

Enquiry: Give me measured IC50, please, for this compound: CC(C)Cc1cc(-c2n[nH]cc2CN(C)CCN)ccc1F [Compound 280]
Return: 0.0043

Enquiry: Give me measured IC50, please, for this compound: CNCCN(C)Cc1c[nH]nc1-c1ccc(OC2CCOCC2)c(F)c1 [Compound 291]
Return: 0.0156

Enquiry: Give me measured IC50, please, for this compound: CNCCN(C)Cc1c[nH]nc1-c1ccc(C)cc1C [Compound 29]
Return: 0.178

Enquiry: Give me measured IC50, please, for this compound: CNCCN(C)Cc1n[nH]c(C)c1-c1ccc(OC(C)C)cc1 [Compound 275]
Return: 0.00863

Enquiry: Give me measured IC50, please, for this compound: CCNCCN(C)Cc1c[nH]nc1-c1ccc(F)cc1 [Compound 60]
Return: 0.17

Enquiry: Give me measured IC50, please, for this compound: CN(CCN)Cc1c[nH]nc1-c1ccc(Cl)c(F)c1 [Compound 118]
Return: 0.00294

Enquiry: Give me measured IC50, please, for this compound: CNCCN(C)Cc1c[nH]nc1-c1ccccc1-c1ccccc1 [Compound 46]
Return: 2.5

Enquiry: Give me measured IC50, please, for this compound: CNCCN(C)Cc1c[nH]nc1-c1ccc(OC)cc1 [Compound 25]
Return: 0.0209
